Attribution: patent US12180193B2

- target: BRAF V600E (Homo sapiens, UniProt P15056, V600E)
- Construct: expressed in transfected cells
- Sequence (P15056 whole entry V600E): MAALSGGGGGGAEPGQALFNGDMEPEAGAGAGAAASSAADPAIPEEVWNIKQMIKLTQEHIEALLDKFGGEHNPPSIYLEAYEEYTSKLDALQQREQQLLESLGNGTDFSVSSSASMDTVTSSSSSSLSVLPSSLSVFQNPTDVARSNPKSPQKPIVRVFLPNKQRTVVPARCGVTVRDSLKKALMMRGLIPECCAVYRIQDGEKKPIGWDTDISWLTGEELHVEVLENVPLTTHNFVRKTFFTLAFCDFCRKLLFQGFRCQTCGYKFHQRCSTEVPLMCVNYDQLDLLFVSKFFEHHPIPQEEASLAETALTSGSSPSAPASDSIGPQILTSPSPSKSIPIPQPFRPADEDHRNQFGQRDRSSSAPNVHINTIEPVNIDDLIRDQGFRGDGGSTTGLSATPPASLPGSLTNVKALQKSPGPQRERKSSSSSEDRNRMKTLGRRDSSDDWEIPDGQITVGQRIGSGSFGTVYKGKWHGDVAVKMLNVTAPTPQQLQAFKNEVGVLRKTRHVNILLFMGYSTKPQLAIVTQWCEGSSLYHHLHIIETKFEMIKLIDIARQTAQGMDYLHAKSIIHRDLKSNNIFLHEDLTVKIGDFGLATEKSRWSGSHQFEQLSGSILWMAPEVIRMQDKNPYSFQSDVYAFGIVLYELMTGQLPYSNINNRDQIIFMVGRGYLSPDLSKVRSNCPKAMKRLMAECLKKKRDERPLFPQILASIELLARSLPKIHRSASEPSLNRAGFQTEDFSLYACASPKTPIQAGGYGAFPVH
- assay-procedure: Cellular assay of target protein degradation, T-Rex 293 cells stably transfected with HA-BRAF_V600E (HA immunofluorescence, high content imaging)
- Type: cell-based
- setup-conditions: half maximal degradation, T-Rex 293 HA-BRAF V600E; read-out: BRaf V600E DC50
metric: DC50

Example entries begin here.
# molecule, DC50
records = [
    ("O=C1CCC(N2Cc3cc(N4CCN(CCc5ccc(-c6cnc7[nH]cc(C(=O)c8c(F)ccc(NS(=O)(=O)N9CC[C@@H](F)C9)c8F)c7c6)cc5)CC4)c(F)cc3C2=O)C(=O)N1 (stereo partly drawn)", "5 to 50 nM"),
    ("O=C1CC[C@@H](N2Cc3cc(N4CCC(CN5CCN(c6ccc(-c7cnc8[nH]cc(C(=O)c9c(F)ccc(NS(=O)(=O)N%10CC[C@@H](F)C%10)c9F)c8c7)cc6)CC5)CC4)ccc3C2=O)C(=O)N1", "5 to 50 nM"),
    ("O=C1CC[C@H](N2Cc3cc(C4CN(CC5CC6(C5)CN(c5ccc(-c7cnc8[nH]cc(C(=O)c9c(F)ccc(NS(=O)(=O)N%10CC[C@@H](F)C%10)c9F)c8c7)cc5)C6)C4)ccc3C2=O)C(=O)N1", "5 to 50 nM"),
]

**Query** Can you look up the measured DC50 of O=C1CCC(N2Cc3cc(C4CCN(C[C@H](O)Cc5ccc(-c6cnc7[nH]cc(C(=O)c8c(F)ccc(NS(=O)(=O)N9CC[C@@H](F)C9)c8F)c7c6)cc5)CC4)ccc3C2=O)C(=O)N1 (stereo partly drawn) for me?
**Result** 50 to 500 nM

**Query** Queued: CCCS(=O)(=O)Nc1ccc(F)c(C(=O)c2c[nH]c3ncc(-c4ccc(N5CCN(CC6CCN(c7ccc8c(c7)CN([C@H]7CCC(=O)NC7=O)C8=O)CC6)CC5)cc4)cc23)c1F
**Result** 5 to 50 nM

**Query** Note, next up: O=C1CC[C@H](N2Cc3cc(N4CCC(CN5CCN(C6(c7ccc(-c8cnc9[nH]cc(C(=O)c%10c(F)ccc(NS(=O)(=O)N%11CC[C@@H](F)C%11)c%10F)c9c8)cn7)CC6)CC5)CC4)ccc3C2=O)C(=O)N1
**Result** 50 to 500 nM

**Query** Same read-out for O=C1CC[C@H](NC(=O)c2ccc(C3CCN(CC4CCN(c5ncc(-c6cnc7[nH]cc(C(=O)c8c(F)ccc(NS(=O)(=O)N9CC[C@@H](F)C9)c8F)c7c6)cn5)CC4)CC3)cc2F)C(=O)N1 ?
**Result** 50 to 500 nM

**Query** Now the same for O=C1CC[C@H](NC(=O)N2CCCc3c(N4CCC(CN5CCN(c6ccc(-c7cnc8[nH]cc(C(=O)c9c(F)ccc(NS(=O)(=O)N%10CC[C@@H](F)C%10)c9F)c8c7)cc6)CC5)CC4)ccnc32)C(=O)N1
**Result** 50 to 500 nM

**Query** What about O=C1CCC(N2Cc3cc(N4CCC(CN5CCC6(CCN(c7ccc(-c8cnc9[nH]cc(C(=O)c%10c(F)ccc(NS(=O)(=O)N%11CC[C@@H](F)C%11)c%10F)c9c8)cn7)CC6)C5)CC4)ccc3C2=O)C(=O)N1 (stereo partly drawn) ?
**Result** > 500 nM

###

- target: BRAF V600E (Homo sapiens, UniProt P15056, V600E)
- Construct: expressed in transfected cells
- assay-procedure: Cellular assay of target protein degradation, T-Rex 293 cells stably transfected with HA-BRAF_V600E (HA immunofluorescence, high content imaging)
- Format: cell-based
- setup-conditions: half maximal degradation, T-Rex 293 HA-BRAF V600E; read-out: BRaf V600E DC50
metric: DC50

# molecule, metric, reported-measurement
data = [
    ("C[C@@]12CN(CC3CCN(c4ccc5c(c4)CN([C@H]4CCC(=O)NC4=O)C5=O)CC3)C[C@@H]1CN(c1ccc(-c3cnc4[nH]cc(C(=O)c5c(F)ccc(NS(=O)(=O)N6CC[C@@H](F)C6)c5F)c4c3)cc1)C2 [Compound 51]", "DC50", "50 to 500 nM"),
]

// moving on: another record for DC50
**Query** GET /values?readout=DC50&item= O=C1CC[C@@H](N2Cc3cc(N4CC(CN5C[C@@H]6CN(c7ccc(-c8cnc9[nH]cc(C(=O)c%10c(F)ccc(NS(=O)(=O)N%11CC[C@@H](F)C%11)c%10F)c9c8)cc7)C[C@@H]6C5)C4)ccc3C2=O)C(=O)N1 [Compound 86]
**Result** 5 to 50 nM

###

- target: BRAF V600E (Homo sapiens, UniProt P15056, V600E)
- Construct: expressed in transfected cells
- assay-procedure: Cellular assay of target protein degradation, T-Rex 293 cells stably transfected with HA-BRAF_V600E (HA immunofluorescence, high content imaging)
- Type: cell-based
- setup-conditions: maximum degradation observed, T-Rex 293 HA-BRAF V600E
Here, each record is paired with measured Dmax data.

Use these answered entries as a reference point.
# compound, target, reported-measurement
records = [
    ("O=C1CC[C@H](N2Cc3cc(C4CCN(CC5CCN(c6ccc(-c7cnc8[nH]cc(C(=O)c9c(F)ccc(NS(=O)(=O)N%10CC(O)C%10)c9F)c8c7)cc6)CC5)CC4)ccc3C2=O)C(=O)N1 [Compound 279]", "BRAF V600E (Homo sapiens, UniProt P15056, V600E)", "< 35%"),
    ("O=C1CCC(N2Cc3cc(N4CCC(CN5CCCN(c6ccc(-c7cnc8[nH]cc(C(=O)c9c(F)ccc(NS(=O)(=O)N%10CC[C@@H](F)C%10)c9F)c8c7)cc6)CC5)CC4)ccc3C2=O)C(=O)N1 (stereo partly drawn) [Compound 322]", "BRAF V600E (Homo sapiens, UniProt P15056, V600E)", "< 35%"),
    ("O=C1CC[C@@H](N2Cc3cc(N4CC5(CN(CC6CCN(c7ccc(-c8cnc9[nH]cc(C(=O)c%10c(F)ccc(NS(=O)(=O)N%11CC[C@@H](F)C%11)c%10F)c9c8)cc7)CC6)C5)C4)ccc3C2=O)C(=O)N1 [Compound 222]", "BRAF V600E (Homo sapiens, UniProt P15056, V600E)", "35 to 70%"),
    ("O=C1CCC(N2Cc3cc(C4CCN(CCC5CCN(c6ccc(-c7cnc8[nH]cc(C(=O)c9c(F)ccc(NS(=O)(=O)N%10CC[C@@H](F)C%10)c9F)c8c7)cc6)CC5)CC4)ccc3C2=O)C(=O)N1 (stereo partly drawn) [Compound 127]", "BRAF V600E (Homo sapiens, UniProt P15056, V600E)", "< 35%"),
    ("O=C1CCC(N2Cc3cc(N4CCN(CCc5ccc(-c6cnc7[nH]cc(C(=O)c8c(F)ccc(NS(=O)(=O)N9CC[C@@H](F)C9)c8F)c7c6)cc5)CC4)c(F)cc3C2=O)C(=O)N1 (stereo partly drawn) [Compound 152]", "BRAF V600E (Homo sapiens, UniProt P15056, V600E)", "35 to 70%"),
    ("O=C1CC[C@H](N2Cc3cc(N4CCN(CC5CCN(c6ccc(-c7cnc8[nH]cc(C(=O)c9c(F)ccc(NS(=O)(=O)N%10CC[C@@H](F)C%10)c9F)c8c7)cc6)CC5)CC4)ccc3C2=O)C(=O)N1 [Compound 219]", "BRAF V600E (Homo sapiens, UniProt P15056, V600E)", "35 to 70%"),
]

**Query** Hi! What's the reported Dmax for C[C@@]12CN(CC3CCN(c4ccc5c(c4)CN(C4CCC(=O)NC4=O)C5=O)CC3)C[C@]1(C)CN(c1ccc(-c3cnc4[nH]cc(C(=O)c5c(F)ccc(NS(=O)(=O)N6CC[C@@H](F)C6)c5F)c4c3)cc1)C2 (stereo partly drawn) [Compound 2] on BRAF V600E (Homo sapiens, UniProt P15056, V600E)?
**Result** 35 to 70%

**Query** Follow-up entry: COc1cc(N2CCN(CC3CCN(c4ccc(-c5cnc6[nH]cc(C(=O)c7c(F)ccc(NS(=O)(=O)N8CC[C@@H](F)C8)c7F)c6c5)cc4)CC3)CC2)ccc1C(=O)NC1CCC(=O)NC1=O (stereo partly drawn) [Compound 360]
**Result** < 35%

**Query** COc1c(NS(=O)(=O)N2CC[C@@H](F)C2)ccc(F)c1C(=O)c1c[nH]c2ncc(-c3ccc(N4CCC(CN5CCC(c6ccc7c(c6)CN([C@H]6CCC(=O)NC6=O)C7=O)CC5)CC4)cc3)cc12 [Compound 207] ?
**Result** 35 to 70%

###

Entries and their measured Dmax follow.
- target: BRAF G466V (Homo sapiens, UniProt P15056, G466V)
- Construct: expressed in transfected cells
- Sequence (P15056 whole entry G466V): as the sequence (P15056 whole entry V600E) above, with G466V, E600V counted along it
- assay-procedure: Cellular assay of target protein degradation, T-Rex 293 cells stably transfected with HA-BRAF G466V (HA immunofluorescence, high content imaging)
- Assay type: cell-based
- setup-conditions: maximum degradation observed, T-Rex 293 HA-BRAF G466V

The examples below pair each entry with its known result.
# compound, target, Dmax
measured = [
    ("O=C1CCC(N2Cc3cc(N4CCN(CC5CCN(c6ccc(-c7cnc8[nH]cc(C(=O)c9c(F)ccc(NS(=O)(=O)N%10CC[C@@H](F)C%10)c9F)c8c7)cc6)CC5)CC(F)(F)C4)ccc3C2=O)C(=O)N1 (stereo partly drawn)", "BRAF G466V (Homo sapiens, UniProt P15056, G466V)", "< 35%"),
    ("O=C1CC[C@@H](N2Cc3cc([C@@H](O)CCN4CCN(c5ccc(-c6cnc7[nH]cc(C(=O)c8c(F)ccc(NS(=O)(=O)N9CC[C@@H](F)C9)c8F)c7c6)cc5)CC4)c(F)cc3C2=O)C(=O)N1", "BRAF G466V (Homo sapiens, UniProt P15056, G466V)", "> 70%"),
    ("COc1cc(N2CC3(CN(CC4CCN(c5ccc(-c6cnc7[nH]cc(C(=O)c8c(F)ccc(NS(=O)(=O)N9CC[C@@H](F)C9)c8F)c7c6)cc5)CC4)C3)C2)cc2c1C(=O)N([C@@H]1CCC(=O)NC1=O)C2", "BRAF G466V (Homo sapiens, UniProt P15056, G466V)", "> 70%"),
    ("O=C1CCC(N2Cc3cc(N4CCC(CN5CCC(Cc6ccc(-c7cnc8[nH]cc(C(=O)c9c(F)ccc(NS(=O)(=O)N%10CC[C@@H](F)C%10)c9F)c8c7)cc6)CC5)CC4)ccc3C2=O)C(=O)N1 (stereo partly drawn)", "BRAF G466V (Homo sapiens, UniProt P15056, G466V)", "> 70%"),
    ("O=C1CCC(N2Cc3cc(N4CCC(CN5CC6(CCN(c7ccc(-c8cnc9[nH]cc(C(=O)c%10c(F)ccc(NS(=O)(=O)N%11CC[C@@H](F)C%11)c%10F)c9c8)cc7F)C6)C5)CC4)ccc3C2=O)C(=O)N1 (stereo partly drawn)", "BRAF G466V (Homo sapiens, UniProt P15056, G466V)", "35 to 70%"),
    ("O=C1CC[C@@H](N2Cc3cc(C4CN(CC5CCN(c6ccc(-c7cnc8[nH]cc(C(=O)c9c(F)ccc(NS(=O)(=O)N%10CC[C@@H](F)C%10)c9F)c8c7)cc6)CC5)C4)ccc3C2=O)C(=O)N1", "BRAF G466V (Homo sapiens, UniProt P15056, G466V)", "> 70%"),
]

**Query** Returns the measured Dmax for the input compound. Input: O=C1CC[C@@H](NC(=O)N2CCCc3c(C4CCN(CC5CCN(c6ccc(-c7cnc8[nH]cc(C(=O)c9c(F)ccc(NS(=O)(=O)N%10CC[C@@H](F)C%10)c9F)c8c7)cc6)CC5)CC4)ccnc32)C(=O)N1
**Result** < 35%

**Query** Input O=C1CCC(N2Cc3cc(N4CCC(CN5CCC6(CCN(c7ccc(-c8cnc9[nH]cc(C(=O)c%10c(F)ccc(NS(=O)(=O)N%11CC[C@@H](F)C%11)c%10F)c9c8)cc7F)CC6)C5)CC4)ccc3C2=O)C(=O)N1 (stereo partly drawn)
**Result** > 70%

**Query** Param item: O=C1CC[C@@H](NC(=O)c2ccc(C3CCN(CC4CCN(c5ccc(-c6cnc7[nH]cc(C(=O)c8c(F)ccc(NS(=O)(=O)N9CC[C@@H](F)C9)c8F)c7c6)cc5)CC4)CC3)cc2F)C(=O)N1
**Result** < 35%
